Values compiled from patent US7846917B2.

# experimentalSystem: progesterone receptor (Oryctolagus cuniculus)
# Construct: cytosol from rabbit uterus homogenate; from tissue; host or cells: rabbit uterus (cytosol of homogenate)
# Sequence (P06186 whole entry): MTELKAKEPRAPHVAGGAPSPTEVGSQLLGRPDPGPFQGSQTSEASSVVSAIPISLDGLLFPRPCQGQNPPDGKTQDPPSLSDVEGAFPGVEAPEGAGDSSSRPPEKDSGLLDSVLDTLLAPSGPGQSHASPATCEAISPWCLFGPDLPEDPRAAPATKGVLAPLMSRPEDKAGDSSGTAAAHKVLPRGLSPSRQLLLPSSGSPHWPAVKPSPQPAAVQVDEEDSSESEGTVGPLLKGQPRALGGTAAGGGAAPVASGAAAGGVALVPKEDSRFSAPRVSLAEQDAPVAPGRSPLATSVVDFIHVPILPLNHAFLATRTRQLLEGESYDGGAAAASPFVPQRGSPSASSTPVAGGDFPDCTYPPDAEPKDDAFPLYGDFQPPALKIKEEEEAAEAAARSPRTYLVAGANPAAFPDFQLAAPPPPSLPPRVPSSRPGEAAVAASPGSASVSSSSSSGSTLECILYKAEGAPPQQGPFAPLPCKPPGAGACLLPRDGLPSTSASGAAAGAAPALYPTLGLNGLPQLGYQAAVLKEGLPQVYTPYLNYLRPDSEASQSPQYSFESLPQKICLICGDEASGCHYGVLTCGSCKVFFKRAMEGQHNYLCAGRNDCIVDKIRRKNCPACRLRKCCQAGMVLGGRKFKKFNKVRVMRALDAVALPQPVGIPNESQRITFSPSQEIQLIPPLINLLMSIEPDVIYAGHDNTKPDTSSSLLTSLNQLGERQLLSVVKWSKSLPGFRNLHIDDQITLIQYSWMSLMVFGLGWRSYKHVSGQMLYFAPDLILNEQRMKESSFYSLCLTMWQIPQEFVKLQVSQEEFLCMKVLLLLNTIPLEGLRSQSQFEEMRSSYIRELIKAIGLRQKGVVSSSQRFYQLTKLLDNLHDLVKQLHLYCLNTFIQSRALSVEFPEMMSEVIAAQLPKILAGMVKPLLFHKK
# methodSummary: progesterone receptor binding assay using cytosol from rabbit uterus homogenate
# conditionLabel: 3H-progesterone = 100
# Source text: This object is achieved by the provision of the 18-methyl-15β,16β-methylene-19-nor-20-spirox-4-en-3-ones of the general formula I described herein.
Sorting guide: entries reporting PR [RBA] beneath 40 go in the Condition met pile, the rest go in the Condition not met pile.

>>> classassignment("CC[C@]12CC[C@H]3[C@H]([C@@H]1[C@@H]1C[C@@H]1[C@@]21CCCO1)[C@H](C)CC1=CC(=O)CC[C@@H]13 [Example 6]")
"Condition not met"
>>> classassignment("CC[C@]12CC[C@H]3[C@H]([C@@H]1[C@@H]1C[C@@H]1[C@@]21CCCO1)[C@H](C1CC1)CC1=CC(=O)CC[C@@H]13 [Example 12]")
"Condition not met"
>>> classassignment("CC[C@]12CC[C@H]3[C@@H]([C@H]4C[C@H]4C4=C(Cl)C(=O)CC[C@@H]43)[C@@H]1[C@@H]1C[C@@H]1[C@@]21CCCO1 [Example 18]")
"Condition met"
>>> classassignment("CCC12CCC3C4CCC(=O)C=C4CC(C)C3C1C1CC1C21CCCO1 (stereo not drawn) [Example 7]")
"Condition not met"
>>> classassignment("CC[C@]12CC[C@H]3[C@@H](CCC4=C(C)C(=O)CC[C@@H]43)[C@@H]1[C@@H]1C[C@@H]1[C@@]21CCCO1 [Example 14]")
"Condition met"
>>> classassignment("CCC1CC2=CC(=O)CCC2C2CCC3(CC)C(C4CC4C34CCCO4)C12 (stereo not drawn) [Example 9]")
"Condition met"
>>> classassignment("CC[C@]12CCC3C4CCC(=O)C=C4C4CC4C3C1[C@@H]1C[C@@H]1[C@@]21CCCO1 (stereo partly drawn) [Example 2]")
"Condition not met"
>>> classassignment("CCC12CCC3C4CCC(=O)C(C)=C4C4CC4C3C1C1CC1C21CCCO1 (stereo not drawn) [Example 17]")
"Condition met"
